Target: F-actin (chicken, UniProt P68139 1-377)
Assay: co-sedimentation
pKd: −log10 of the molar value.
metric: pKd

# binder, observedMeasurement
data = [
    ("supervillin headpiece, wild type (domain or fragment) LAKLCKTIYPLADLLARPLPEGVDPLKLEIYLTDEDFEFALDMTRDEYNALPAWKQVNLKKAKGLF", "< 1.70"),
]

Taken from paper PMC2760644.
